system: Trypanosoma cruzi; assay: Antitrypanosomal activity against trypomastigote stage of Trypanosoma cruzi Y assessed as reduction in parasitic viability after 24 hrs by Pizzi-Brener method; type: functional, organism-based
quantity.kind: EC50 (µM)
Lab book: enter the figure in µM, no units written.

Consider the worked cases shown below.
COc1ccc(/C=C(\C)C(=O)/C=C/c2ccccc2Cl)cc1; 21.8
COc1ccc(/C=C(\C)C(=O)/C=C/c2ccc(OC)c(OC)c2)cc1; 66.7
CC/C(=C\c1ccc(Cl)cc1)C(=O)/C=C/c1ccc(Br)cc1; 19.5
COc1ccc(/C=C(\C)C(=O)/C=C/c2cc(OC)c(OC)c(OC)c2)cc1; 69.2
COc1ccc(/C=C(\C)C(=O)/C=C/c2ccc(F)cc2)cc1; 19.7

Recorded EC50 of `O=C(Cn1ccnc1[N+](=O)[O-])NCc1ccccc1` , please. 34.5

# EC50 lookup, item `COc1ccc(/C=C(\C)C(=O)/C=C/c2ccc(Cl)cc2)cc1` 23

I would be grateful if you could share the reported EC50 for `COc1ccc(/C=C(\C)C(=O)/C=C/c2cccc(Br)c2)cc1` . 20.3

So what's the measured EC50 for this one? `CC/C(=C\c1ccc(Cl)cc1)C(=O)/C=C/c1ccc(C=O)cc1` 74.2

* * *

assay: Cytotoxicity against African green monkey Vero cells after 72 hrs by MTT assay; type: cell-based; settings: chlorocebus sabaeus
quantity.kind: CC50 at 72 h (µM)
// note: answer is a bare numeric in µM

Field: example entries. Status: answers known.
CC/C(=C\c1ccc(Cl)cc1)C(=O)/C=C/c1cccc(OC)c1OC; 21.8
COc1ccc(/C=C(\C)C(=O)/C=C/c2ccc(/C=C/C(=O)/C(C)=C/c3ccc(OC)cc3)cc2)cc1; 460
CC/C(=C\c1ccc(Cl)cc1)C(=O)/C=C/c1ccc(C=O)cc1; 46.9

What value of CC50 at 72 h has been reported for the following compound? `CC/C(=C\c1ccc(Cl)cc1)C(=O)/C=C/c1ccccc1Br` 24.4

# query: CC50 at 72 h of entry `CC/C(=C\c1ccc(Cl)cc1)C(=O)/C=C/c1ccc2c(c1)OCO2` 27.1

* * *

tested on: Leishmania amazonensis; assay: Antileishmanial activity against promastigote stage of Leishmania amazonensis MHOM/BR/75/Josefa assessed as reduction in parasitic count after 72 hrs by Neubauer hemocytometry; format: functional, organism-based
Field: label. Allowed values: TRUE (IC50 < 10 µM) or FALSE (IC50 >= 10 µM).

Study these solved cases before continuing.
COc1ccc(/C=C(\C)C(=O)/C=C/c2ccccc2Cl)cc1; FALSE
CC/C(=C\c1ccc(Cl)cc1)C(C)=O; FALSE
COc1ccc(/C=C(\C)C(=O)/C=C/c2cccc(Cl)c2Cl)cc1; FALSE
COc1ccc(/C=C(\C)C(=O)/C=C/c2c(Cl)cccc2Cl)cc1; TRUE
COc1ccc(/C=C(\C)C(=O)/C=C/c2ccc(Cl)cc2)cc1; FALSE

Dear reviewer, please state whether `COc1ccc(/C=C(\C)C(=O)/C=C/c2cccc(Br)c2)cc1` has IC50 strictly beneath 10 µM. FALSE

Would you kindly verify if IC50 of `COc1ccc(/C=C(\C)C(C)=O)cc1` is strictly less than 10 µM? FALSE

Determine whether this compound shows IC50 lower than 10 µM (ties excluded): `CC/C(=C\c1ccc(Cl)cc1)C(=O)/C=C/c1ccc(Br)cc1` TRUE

Does the reported IC50 of the following compound sit strictly below 10 µM? `CC/C(=C\c1ccc(Cl)cc1)C(=O)/C=C/c1ccc(Cl)cc1` TRUE

Threshold test, IC50 < 10 µM: `COc1ccc(/C=C(\C)C(=O)/C=C/c2ccccc2F)cc1` FALSE

* * *

system: Leishmania amazonensis; assay: Antileishmanial activity against promastigote stage of Leishmania amazonensis MHOM/BR/75/Josefa assessed as reduction in parasitic count after 72 hrs by Neubauer hemocytometry; type: functional, organism-based
quantity.kind: IC50 (µM)
Field: numeric (µM). Do not append units.

Here is how some molecules turned out for IC50.
CC/C(=C\c1ccc(Cl)cc1)C(=O)/C=C/c1ccc2c(c1)OCO2; 2.9
CC/C(=C\c1ccc(Cl)cc1)C(=O)/C=C/c1ccc([N+](=O)[O-])cc1; 0.5

Entry `COc1ccc(/C=C(\C)C(=O)/C=C/c2ccc(F)cc2)cc1` has what IC50? 19.3

Fill in the blank: the reported IC50 of `COc1ccc(/C=C(\C)C(=O)/C=C/c2ccccc2Br)cc1` is ____. 21.7

IC50 for `CC/C(=C\c1ccc(Cl)cc1)C(=O)/C=C/c1ccc(C=O)cc1` ? 17.4

* * *

test system: Trypanosoma cruzi; assay: Antitrypanosomal activity against epimastigote stage of Trypanosoma cruzi Y assessed as reduction in parasitic count after 96 hrs by Neubauer hemocytometry; type: functional, organism-based
pIC50: −log10 of the molar value.
Answer 0.0 if pIC50 is under 5, and 1.0 if it is 5 or more.

Completed entries (count: 8):
COc1ccc(/C=C(\C)C(=O)/C=C/c2ccc(/C=C/C(=O)/C(C)=C/c3ccc(OC)cc3)cc2)cc1; 0.0
CC/C(=C\c1ccc(Cl)cc1)C(=O)/C=C/c1ccc2c(c1)OCO2; 1.0
O=C(Cn1ccnc1[N+](=O)[O-])NCc1ccccc1; 1.0
CC/C(=C\c1ccc(Cl)cc1)C(=O)/C=C/c1ccc(Br)cc1; 1.0
COc1ccc(/C=C(\C)C(=O)/C=C/c2ccccc2Cl)cc1; 0.0
COc1ccc(/C=C(\C)C(C)=O)cc1; 0.0
COc1ccc(/C=C(\C)C(=O)/C=C/c2cc(OC)c(OC)c(OC)c2)cc1; 1.0
COc1ccc(/C=C(\C)C(=O)/C=C/c2c(Cl)cccc2Cl)cc1; 0.0

Is it the case that `COc1ccc(/C=C(\C)C(=O)/C=C/c2ccc(Br)cc2)cc1` has pIC50 reaching or exceeding 5? 0.0

Say whether `CC/C(=C\c1ccc(Cl)cc1)C(=O)/C=C/c1ccc(C=O)cc1` shows pIC50 of 5 or more. 0.0

* * *

# CC50 at 72 h listing for each entry below
experiment: Cytotoxicity against African green monkey Vero cells after 72 hrs by MTT assay; format: cell-based; settings: chlorocebus sabaeus
Report as a plain number; the unit µM is understood.

Examples with their reported CC50 at 72 h follow.
CC/C(=C\c1ccc(Cl)cc1)C(=O)/C=C/c1ccc(Cl)cc1; 28.3
COc1ccc(/C=C(\C)C(=O)/C=C/c2ccccc2F)cc1; 81.2
COc1ccc(/C=C(\C)C(=O)/C=C/c2cc(OC)c(OC)c(OC)c2)cc1; 21.4
COc1ccc(/C=C(\C)C(=O)/C=C/c2ccc(OC)c(OC)c2)cc1; 74.2
COc1ccc(/C=C(\C)C(C)=O)cc1; 240
CC/C(=C\c1ccc(Cl)cc1)C(=O)/C=C/c1ccc(Br)cc1; 29.4

Returns the measured CC50 at 72 h for the input molecule. Input: `COc1ccc(/C=C(\C)C(=O)/C=C/c2cccc(Cl)c2Cl)cc1` 119

May I ask what CC50 at 72 h has been recorded for `CC/C(=C\c1ccc(Cl)cc1)C(=O)/C=C/c1ccc([N+](=O)[O-])cc1` ? 36

Query: CC50 at 72 h; subject: `COc1ccc(/C=C(\C)C(=O)/C=C/c2c(Cl)cccc2Cl)cc1` 65.7

# get_value(readout='CC50 at 72 h', item= `COc1ccc(/C=C(\C)C(=O)/C=C/c2ccc(F)cc2)cc1` ) 68.1

Please report the recorded CC50 at 72 h for `COc1ccc(/C=C(\C)C(=O)/C=C/c2ccc(Br)cc2)cc1` . 31.2

Value lookup for CC50 at 72 h; key = `COc1ccc(/C=C(\C)C(=O)/C=C/c2cccc(Br)c2)cc1` 152

Item `COc1ccc(/C=C(\C)C(=O)/C=C/c2ccc(Cl)cc2)cc1` has what recorded CC50 at 72 h? 87

Entry under review: `CC/C(=C\c1ccc(Cl)cc1)C(C)=O` . Reported CC50 at 72 h? 136

Please give the measured CC50 at 72 h for this molecule: `COc1ccc(/C=C(\C)C(=O)/C=C/c2ccccc2Cl)cc1` 74.3

What value of CC50 at 72 h has been reported for the following molecule? `COc1ccc(/C=C(\C)C(=O)/C=C/c2ccccc2Br)cc1` 71

Numbers sourced from ChEMBL document CHEMBL3817790.
